molecular target: DAPK3 (human); assay: radiometric filter-binding kinase assay, Kinase HotSpot; conditions: compound 0.5 µM; ATP 10 µM
We begin with a simple list: items and their reported residual activity.
RECORDED_ENDPOINT: residual activity (%)

O=C1NC(=O)c2c1c1c3ccccc3[nH]c1c1[nH]c3cc(Br)ccc3c21 : 62.9
Nc1ncnc2c1cnn2-c1ccccc1 : 103
N#Cc1c(NC(=O)c2cccc3ccccc23)sc2c1CCCC2 : 110
O=c1[nH]c2ccccc2n1C1CCN(Cc2ccc(-c3nc4cc5[nH]cnc5cc4nc3-c3ccccc3)cc2)CC1 : 106
Cn1cc(/C=C2\C(=O)Nc3ccc(S(N)(=O)=O)cc32)c2ccccc21 : 94.1
O=C(O)c1ccc2c3c1cccc3c(=O)n1c3ccccc3nc21 : 51.3
N#C/C(=C1/Nc2ccccc2S1)c1ccnc(NCCc2cccnc2)n1 : 109
O=C(c1ccccc1)c1ccc(N2CCOCC2)cc1O : 100
COc1cc2c(Nc3ccc(Br)cc3F)ncnc2cc1OCC1CCN(C)CC1 : 90.3
c1ccc(-c2cnc(Nc3ccc(OCCN4CCCC4)cc3)s2)cc1 : 105
N/C(=N\N=C/c1ccc(-c2cccc([N+](=O)[O-])c2)o1)N[N+](=O)[O-] : 103
CCCCc1c(-c2ccc(O)cc2)[nH]c2nccnc12 : 94.9
COc1cc2c(cc1OC)-c1[nH]nc(Nc3cccc(F)c3)c1C2 : 100
O=c1c(-c2ccc(F)cc2)c(-c2ccncc2)[nH]n1-c1ccc(Cl)cc1 : 94.7
COc1cc2c(N3CCN(C(=O)Nc4ccc(OC(C)C)cc4)CC3)ncnc2cc1OCCCN1CCCCC1 : 101
O=C1NC(=O)c2cc(Nc3ccc(F)cc3)c(Nc3ccc(F)cc3)cc21 : 101
COc1cc2ncnc(Nc3ccc(O)c(Br)c3)c2cc1OC : 99.1
CCOc1cc2ncnc(Nc3cccc(Br)c3)c2cc1OCC : 103
O=S(=O)(NCCNC/C=C/c1ccc(Br)cc1)c1cccc2cnccc12 : 97.4
CCc1nc(-c2ccc(OC)cc2)[nH]c1-c1ccncc1 : 95.8
O=c1c2ccccc2[nH]c(=S)n1CCN1CCC(=C(c2ccc(F)cc2)c2ccc(F)cc2)CC1 : 102
Cc1cc(Nc2nc(-c3ccccc3)nc3ccccc23)n[nH]1 : 57.5

====

biological target: TGFBR1 (human) (UniProt P36897); assay: radiometric filter-binding kinase assay, Kinase HotSpot; conditions: compound 0.5 µM; ATP 10 µM
Sequence (P36897 whole entry, looked up): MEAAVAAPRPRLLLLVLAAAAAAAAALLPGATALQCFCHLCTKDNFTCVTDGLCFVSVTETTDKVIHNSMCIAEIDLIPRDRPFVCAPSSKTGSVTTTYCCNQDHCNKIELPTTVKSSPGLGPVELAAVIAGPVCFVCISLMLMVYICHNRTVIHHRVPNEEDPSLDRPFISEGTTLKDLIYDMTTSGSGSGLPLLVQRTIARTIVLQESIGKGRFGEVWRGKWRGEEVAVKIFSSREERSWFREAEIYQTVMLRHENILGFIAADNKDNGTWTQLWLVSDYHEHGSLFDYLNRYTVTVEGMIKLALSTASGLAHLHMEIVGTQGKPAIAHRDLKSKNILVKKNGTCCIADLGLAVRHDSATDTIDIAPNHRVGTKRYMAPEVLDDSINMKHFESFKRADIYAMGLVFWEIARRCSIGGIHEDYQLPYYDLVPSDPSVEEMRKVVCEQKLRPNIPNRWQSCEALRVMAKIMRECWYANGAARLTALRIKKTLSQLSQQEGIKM
We begin with a simple list: items and their reported residual activity.
RECORDED_ENDPOINT: residual activity (%)

COc1cc2c(N3CCN(C(=O)Nc4ccc(OC(C)C)cc4)CC3)ncnc2cc1OCCCN1CCCCC1 : 102
O=C1NC(=O)c2cc(Nc3ccc(F)cc3)c(Nc3ccc(F)cc3)cc21 : 98.1
c1ccc(-c2cnc(Nc3ccc(OCCN4CCCC4)cc3)s2)cc1 : 97
N#Cc1c(NC(=O)c2cccc3ccccc23)sc2c1CCCC2 : 101
O=S(=O)(NCCNC/C=C/c1ccc(Br)cc1)c1cccc2cnccc12 : 97

====

We begin with a simple list: items and their reported residual activity.
target: PTK2B (human) (UniProt Q14289); test: radiometric filter-binding kinase assay, Kinase HotSpot; conditions: compound 0.5 µM; ATP 10 µM
Sequence (Q14289 whole entry, looked up): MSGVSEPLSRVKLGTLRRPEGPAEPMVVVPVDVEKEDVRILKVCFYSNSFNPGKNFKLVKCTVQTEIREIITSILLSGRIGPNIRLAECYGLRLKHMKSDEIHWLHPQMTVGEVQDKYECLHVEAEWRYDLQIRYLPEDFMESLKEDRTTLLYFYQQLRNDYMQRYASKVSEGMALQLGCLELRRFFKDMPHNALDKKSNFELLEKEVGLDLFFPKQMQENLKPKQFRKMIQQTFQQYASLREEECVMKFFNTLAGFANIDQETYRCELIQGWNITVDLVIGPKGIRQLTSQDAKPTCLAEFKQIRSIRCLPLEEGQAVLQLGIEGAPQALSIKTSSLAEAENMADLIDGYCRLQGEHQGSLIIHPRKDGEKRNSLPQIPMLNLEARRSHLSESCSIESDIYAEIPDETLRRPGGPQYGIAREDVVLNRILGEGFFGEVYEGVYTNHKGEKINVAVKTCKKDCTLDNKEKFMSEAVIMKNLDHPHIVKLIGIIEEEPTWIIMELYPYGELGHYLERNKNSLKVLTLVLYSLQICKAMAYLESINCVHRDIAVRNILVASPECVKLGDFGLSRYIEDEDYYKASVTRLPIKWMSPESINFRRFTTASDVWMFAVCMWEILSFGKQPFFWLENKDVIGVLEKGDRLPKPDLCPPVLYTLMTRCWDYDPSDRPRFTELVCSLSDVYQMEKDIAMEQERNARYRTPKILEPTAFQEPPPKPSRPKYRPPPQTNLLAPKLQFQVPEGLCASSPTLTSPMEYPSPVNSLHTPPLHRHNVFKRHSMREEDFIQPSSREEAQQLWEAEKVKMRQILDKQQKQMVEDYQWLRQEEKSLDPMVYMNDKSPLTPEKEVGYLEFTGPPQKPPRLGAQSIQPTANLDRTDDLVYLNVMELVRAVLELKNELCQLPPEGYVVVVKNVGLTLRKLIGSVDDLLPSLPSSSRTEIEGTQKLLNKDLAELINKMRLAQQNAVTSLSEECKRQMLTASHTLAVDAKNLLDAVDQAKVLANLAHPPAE
RECORDED_ENDPOINT: residual activity (%)

CCOc1cc2ncnc(Nc3cccc(Br)c3)c2cc1OCC : 95.8
N/C(=N\N=C/c1ccc(-c2cccc([N+](=O)[O-])c2)o1)N[N+](=O)[O-] : 91.5
COc1cc2c(N3CCN(C(=O)Nc4ccc(OC(C)C)cc4)CC3)ncnc2cc1OCCCN1CCCCC1 : 99.3
N#Cc1c(NC(=O)c2cccc3ccccc23)sc2c1CCCC2 : 108
COc1cc2c(cc1OC)-c1[nH]nc(Nc3cccc(F)c3)c1C2 : 98
COc1cc2c(Nc3ccc(Br)cc3F)ncnc2cc1OCC1CCN(C)CC1 : 99.5
COc1cc2ncnc(Nc3ccc(O)c(Br)c3)c2cc1OC : 86.9
N#CCCc1ccc2c(c1)-c1[nH]c3ccc([N+](=O)[O-])cc3c1CC(=O)N2 : 62.9
CCCCc1c(-c2ccc(O)cc2)[nH]c2nccnc12 : 99
O=c1cc(N2CCOCC2)oc2c(-c3ccccc3)cccc12 : 107
N#C/C(=C1/Nc2ccccc2S1)c1ccnc(NCCc2cccnc2)n1 : 98.7

====

target: RET (human); test: radiometric filter-binding kinase assay, Kinase HotSpot; settings: compound 0.5 µM; ATP 10 µM
We begin with a simple list: items and their reported residual activity.
RECORDED_ENDPOINT: residual activity (%)

N#CCCc1ccc2c(c1)-c1[nH]c3ccc([N+](=O)[O-])cc3c1CC(=O)N2 : 80.8
O=c1cc(N2CCOCC2)oc2c(-c3ccccc3)cccc12 : 99.2
CCOc1cc2ncnc(Nc3cccc(Br)c3)c2cc1OCC : 39.3
O=C1NC(=O)c2c1c1c3ccccc3[nH]c1c1[nH]c3cc(Br)ccc3c21 : 80.1
COc1cc2ncnc(Nc3ccc(O)c(Br)c3)c2cc1OC : 21.4
Nc1ncnc2c1cnn2-c1ccccc1 : 98.2

====

We begin with a simple list: items and their reported residual activity.
molecular target: ULK1 (human) (UniProt O75385); experiment: radiometric filter-binding kinase assay, Kinase HotSpot; conditions: compound 0.5 µM; ATP 10 µM
Sequence (O75385 whole entry, looked up): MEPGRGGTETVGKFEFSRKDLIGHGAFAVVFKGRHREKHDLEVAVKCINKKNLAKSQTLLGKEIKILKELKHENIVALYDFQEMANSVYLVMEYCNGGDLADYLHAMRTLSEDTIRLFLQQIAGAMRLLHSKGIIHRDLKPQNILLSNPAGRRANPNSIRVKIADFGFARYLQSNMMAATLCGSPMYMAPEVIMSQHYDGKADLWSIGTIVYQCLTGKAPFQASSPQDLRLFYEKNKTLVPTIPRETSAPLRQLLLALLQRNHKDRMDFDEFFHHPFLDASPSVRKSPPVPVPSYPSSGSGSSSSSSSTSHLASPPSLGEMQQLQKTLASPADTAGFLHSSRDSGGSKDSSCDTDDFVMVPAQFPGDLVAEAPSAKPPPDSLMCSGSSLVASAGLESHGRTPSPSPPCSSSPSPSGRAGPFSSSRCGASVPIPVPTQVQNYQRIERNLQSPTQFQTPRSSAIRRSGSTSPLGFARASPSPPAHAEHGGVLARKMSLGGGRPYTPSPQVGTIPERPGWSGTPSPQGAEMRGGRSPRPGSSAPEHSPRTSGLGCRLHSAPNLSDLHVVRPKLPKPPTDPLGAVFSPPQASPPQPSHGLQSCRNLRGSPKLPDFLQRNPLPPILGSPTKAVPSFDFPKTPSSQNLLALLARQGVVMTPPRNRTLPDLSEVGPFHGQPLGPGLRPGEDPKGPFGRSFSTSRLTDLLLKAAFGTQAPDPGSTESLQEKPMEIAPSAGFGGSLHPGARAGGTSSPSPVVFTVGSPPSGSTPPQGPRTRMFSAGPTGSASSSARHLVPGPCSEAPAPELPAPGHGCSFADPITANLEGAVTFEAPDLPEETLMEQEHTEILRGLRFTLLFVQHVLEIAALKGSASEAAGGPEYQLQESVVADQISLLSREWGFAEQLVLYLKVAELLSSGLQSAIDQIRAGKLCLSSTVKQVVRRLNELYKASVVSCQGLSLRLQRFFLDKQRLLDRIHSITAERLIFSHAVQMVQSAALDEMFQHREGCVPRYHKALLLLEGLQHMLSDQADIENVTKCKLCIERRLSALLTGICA
RECORDED_ENDPOINT: residual activity (%)

O=c1cc(N2CCOCC2)oc2c(-c3ccccc3)cccc12 : 102
CCc1nc(-c2ccc(OC)cc2)[nH]c1-c1ccncc1 : 84.5
Nc1ncnc2c1cnn2-c1ccccc1 : 99.5
O=c1c2ccccc2[nH]c(=S)n1CCN1CCC(=C(c2ccc(F)cc2)c2ccc(F)cc2)CC1 : 98.1
O=C(O)c1ccc2c3c1cccc3c(=O)n1c3ccccc3nc21 : 83.5
CCOc1cc2ncnc(Nc3cccc(Br)c3)c2cc1OCC : 98.8
O=C1NC(=O)c2cc(Nc3ccc(F)cc3)c(Nc3ccc(F)cc3)cc21 : 102
COc1cccc(-c2cc(=O)c3ccccc3o2)c1N : 104
CCCCc1c(-c2ccc(O)cc2)[nH]c2nccnc12 : 82.5
N/C(=N\N=C/c1ccc(-c2cccc([N+](=O)[O-])c2)o1)N[N+](=O)[O-] : 93.7
N#C/C(=C1/Nc2ccccc2S1)c1ccnc(NCCc2cccnc2)n1 : 98.5

====

target: DDR2 (human); experiment: radiometric filter-binding kinase assay, Kinase HotSpot; conditions: compound 0.5 µM; ATP 10 µM
RECORDED_ENDPOINT: residual activity (%)

COc1cc2c(N3CCN(C(=O)Nc4ccc(OC(C)C)cc4)CC3)ncnc2cc1OCCCN1CCCCC1 : 102
O=c1c(-c2ccc(F)cc2)c(-c2ccncc2)[nH]n1-c1ccc(Cl)cc1 : 90.6
c1ccc(-c2cnc(Nc3ccc(OCCN4CCCC4)cc3)s2)cc1 : 86.6
O=C(c1ccccc1)c1ccc(N2CCOCC2)cc1O : 103
COc1cccc(-c2cc(=O)c3ccccc3o2)c1N : 92
O=C(O)c1ccc2c3c1cccc3c(=O)n1c3ccccc3nc21 : 96.8

====

target: AKT1 (human) (UniProt P31749); test: radiometric filter-binding kinase assay, Kinase HotSpot; settings: compound 0.5 µM; ATP 10 µM
Sequence (P31749 whole entry, looked up): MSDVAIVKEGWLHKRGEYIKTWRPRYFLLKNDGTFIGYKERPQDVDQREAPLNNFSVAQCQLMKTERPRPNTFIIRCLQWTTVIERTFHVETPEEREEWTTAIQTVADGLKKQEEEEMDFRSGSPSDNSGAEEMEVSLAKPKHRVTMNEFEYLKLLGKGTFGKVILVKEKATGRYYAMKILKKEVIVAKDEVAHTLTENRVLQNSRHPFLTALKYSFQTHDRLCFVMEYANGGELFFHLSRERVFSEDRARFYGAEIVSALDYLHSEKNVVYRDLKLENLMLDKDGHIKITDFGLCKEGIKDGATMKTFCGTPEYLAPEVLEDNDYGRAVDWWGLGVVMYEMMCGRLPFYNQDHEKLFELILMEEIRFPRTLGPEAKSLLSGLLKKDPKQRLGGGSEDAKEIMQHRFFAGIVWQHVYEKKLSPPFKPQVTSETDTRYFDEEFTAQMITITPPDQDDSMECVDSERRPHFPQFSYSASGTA
We begin with a simple list: items and their reported residual activity.
RECORDED_ENDPOINT: residual activity (%)

O=S(=O)(NCCNC/C=C/c1ccc(Br)cc1)c1cccc2cnccc12 : 41.6
FC(F)(F)c1ccc(/C=C/c2nc(COc3ccc(CCCCn4ccnn4)cc3)co2)cc1 : 93.2
O=c1[nH]c2ccccc2n1C1CCN(Cc2ccc(-c3nc4cc5[nH]cnc5cc4nc3-c3ccccc3)cc2)CC1 : 114

====

molecular target: BLK (human); test: radiometric filter-binding kinase assay, Kinase HotSpot; conditions: compound 0.5 µM; ATP 10 µM
We begin with a simple list: items and their reported residual activity.
RECORDED_ENDPOINT: residual activity (%)

COc1cccc(-c2cc(=O)c3ccccc3o2)c1N : 107
O=c1c2ccccc2[nH]c(=S)n1CCN1CCC(=C(c2ccc(F)cc2)c2ccc(F)cc2)CC1 : 102
O=S(=O)(NCCNC/C=C/c1ccc(Br)cc1)c1cccc2cnccc12 : 82.4
N#Cc1c(NC(=O)c2cccc3ccccc23)sc2c1CCCC2 : 105

====

target: CDK4 CCND1 (human) (UniProt P24385+P11802); experiment: radiometric filter-binding kinase assay, Kinase HotSpot; conditions: compound 0.5 µM; ATP 10 µM
Sequence (P11802 whole entry, looked up): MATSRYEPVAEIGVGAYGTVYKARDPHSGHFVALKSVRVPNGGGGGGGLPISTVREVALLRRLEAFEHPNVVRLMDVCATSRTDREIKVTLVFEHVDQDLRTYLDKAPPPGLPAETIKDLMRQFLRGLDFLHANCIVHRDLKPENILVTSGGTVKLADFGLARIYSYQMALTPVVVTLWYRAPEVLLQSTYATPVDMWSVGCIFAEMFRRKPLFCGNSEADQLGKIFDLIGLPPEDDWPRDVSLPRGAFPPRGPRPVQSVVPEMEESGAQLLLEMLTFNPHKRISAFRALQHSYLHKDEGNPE
Sequence (P24385 whole entry, looked up): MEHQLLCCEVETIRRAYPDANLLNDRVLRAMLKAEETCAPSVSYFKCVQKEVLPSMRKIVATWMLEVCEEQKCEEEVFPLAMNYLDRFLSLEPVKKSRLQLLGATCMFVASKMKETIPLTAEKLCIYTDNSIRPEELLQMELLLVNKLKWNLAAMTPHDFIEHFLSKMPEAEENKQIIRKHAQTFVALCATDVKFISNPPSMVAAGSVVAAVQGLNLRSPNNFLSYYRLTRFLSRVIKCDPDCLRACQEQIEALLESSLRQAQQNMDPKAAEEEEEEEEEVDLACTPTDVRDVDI
RECORDED_ENDPOINT: residual activity (%)

O=C(c1ccccc1)c1ccc(N2CCOCC2)cc1O : 96.1
FC(F)(F)c1ccc(/C=C/c2nc(COc3ccc(CCCCn4ccnn4)cc3)co2)cc1 : 96.8
O=C(O)c1ccc2c3c1cccc3c(=O)n1c3ccccc3nc21 : 106
CC(C)(C)n1nc(Cc2cccc3ccccc23)c2c(N)ncnc21 : 96.7
COc1cc2c(cc1OC)-c1[nH]nc(Nc3cccc(F)c3)c1C2 : 93.9
N#CCCc1ccc2c(c1)-c1[nH]c3ccc([N+](=O)[O-])cc3c1CC(=O)N2 : 11.8
O=S(=O)(NCCNC/C=C/c1ccc(Br)cc1)c1cccc2cnccc12 : 93.9
N/C(=N\N=C/c1ccc(-c2cccc([N+](=O)[O-])c2)o1)N[N+](=O)[O-] : 96.6
O=c1cc(N2CCOCC2)oc2c(-c3ccccc3)cccc12 : 111
N#C/C(=C1/Nc2ccccc2S1)c1ccnc(NCCc2cccnc2)n1 : 90.4
COc1cc2c(N3CCN(C(=O)Nc4ccc(OC(C)C)cc4)CC3)ncnc2cc1OCCCN1CCCCC1 : 92.5
CCCCc1c(-c2ccc(O)cc2)[nH]c2nccnc12 : 66.4
O=c1c2ccccc2[nH]c(=S)n1CCN1CCC(=C(c2ccc(F)cc2)c2ccc(F)cc2)CC1 : 99.6
O=c1c(-c2ccc(F)cc2)c(-c2ccncc2)[nH]n1-c1ccc(Cl)cc1 : 102
COc1cc2ncnc(Nc3ccc(O)c(Br)c3)c2cc1OC : 101
CCc1nc(-c2ccc(OC)cc2)[nH]c1-c1ccncc1 : 107
COc1cccc(-c2cc(=O)c3ccccc3o2)c1N : 100
c1ccc(-c2cnc(Nc3ccc(OCCN4CCCC4)cc3)s2)cc1 : 61.2
COc1cc2c(Nc3ccc(Br)cc3F)ncnc2cc1OCC1CCN(C)CC1 : 94.8
Nc1ncnc2c1cnn2-c1ccccc1 : 103
O=C1NC(=O)c2cc(Nc3ccc(F)cc3)c(Nc3ccc(F)cc3)cc21 : 101
Cn1cc(/C=C2\C(=O)Nc3ccc(S(N)(=O)=O)cc32)c2ccccc21 : 106
